Molecular target: aggregated tau overexpressed in HEK cells (Homo sapiens)
Construct: expressed in transfected cells; host or cells: HEK cells (line called Fs17)
Sequence (P10636 2-412 isoform P10636-7): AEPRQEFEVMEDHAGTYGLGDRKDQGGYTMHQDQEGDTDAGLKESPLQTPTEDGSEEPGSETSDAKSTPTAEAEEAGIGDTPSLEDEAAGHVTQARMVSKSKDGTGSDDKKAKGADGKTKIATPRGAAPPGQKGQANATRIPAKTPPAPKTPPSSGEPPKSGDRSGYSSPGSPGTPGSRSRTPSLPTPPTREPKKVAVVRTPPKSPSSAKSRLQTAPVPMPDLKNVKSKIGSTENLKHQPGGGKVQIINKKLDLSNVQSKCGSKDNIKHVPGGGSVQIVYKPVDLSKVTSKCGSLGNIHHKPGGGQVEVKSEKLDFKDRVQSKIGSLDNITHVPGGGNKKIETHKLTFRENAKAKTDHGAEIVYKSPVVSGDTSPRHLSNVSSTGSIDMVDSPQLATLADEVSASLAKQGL
Assay: Intracellular photooxygenation reaction evaluated by Western blotting
Assay type: cell-based
Conditions: 10 uM compound in cell medium, 595 nm light 15 minutes, 5A6 antibody, FIG. 2
Procedure: An intracellular oxygenation reaction by the compounds PzT, OMe, Q, and J of the present invention was performed using HEK cells in which aggregated tau was overexpressed. Specifically, 10 uM of the compound of the present invention was added to a cell medium, and then irradiated with light at 595 nm for 15 minutes. After the reaction, viable cells were collected and lysed, and then the intracellular photooxygenation reaction was evaluated by measurement with Western blotting (FIG. 2). […]
experimental endpoint: crosslinked product (more than 250 kDa) of the photooxygenation reaction

COc1cc(N(C)C)cc(OC)c1/C=C/C=C/c1nc2ncc(Br)nc2s1 : detected
Brc1cnc2nc(/C=C/C=C/c3cc4c5c(c3)CCCN5CCC4)sc2n1 : detected
CN(C)c1ccc(/C=C/C=C/c2nc3ncc(Br)nc3s2)cc1 : detected
CN1CCCc2cc(/C=C/C=C/c3nc4ncc(Br)nc4s3)ccc21 : detected

---

Experiment: UV-vis spectrum, verification of absorption wavelength
Assay type: physicochemical
From the text: It can be said that the longer the wavelength of light used for a living body, the lower the cytotoxicity and the better the tissue permeability.
λmax (nm), maximum absorption wavelength: recorded values

Sample answers from the record:
CN(C)c1ccc(/C=C/C=C/c2nc3ccc(Br)nc3s2)cc1 : 437 nm
Brc1cnc2nc(/C=C/C=C/c3cc4c5c(c3)CCCN5CCC4)sc2n1 : 508 nm
COc1cc(N(C)C)cc(OC)c1/C=C/C=C/c1nc2ncc(Br)nc2s1 : 495 nm

Task item: State its λmax (nm), maximum absorption wavelength for this compound: CN1CCCc2cc(/C=C/C=C/c3nc4ncc(Br)nc4s3)ccc21
Reply: 500 nm

Task item: State its λmax (nm), maximum absorption wavelength for this compound: CN(C)c1ccc(/C=C/C=C/c2nc3ncc(Br)nc3s2)cc1
Reply: 468 nm

All values here come from patent US20250313576A1.
